- system-tested: UniProt P32247
- Sequence (P32247 whole entry): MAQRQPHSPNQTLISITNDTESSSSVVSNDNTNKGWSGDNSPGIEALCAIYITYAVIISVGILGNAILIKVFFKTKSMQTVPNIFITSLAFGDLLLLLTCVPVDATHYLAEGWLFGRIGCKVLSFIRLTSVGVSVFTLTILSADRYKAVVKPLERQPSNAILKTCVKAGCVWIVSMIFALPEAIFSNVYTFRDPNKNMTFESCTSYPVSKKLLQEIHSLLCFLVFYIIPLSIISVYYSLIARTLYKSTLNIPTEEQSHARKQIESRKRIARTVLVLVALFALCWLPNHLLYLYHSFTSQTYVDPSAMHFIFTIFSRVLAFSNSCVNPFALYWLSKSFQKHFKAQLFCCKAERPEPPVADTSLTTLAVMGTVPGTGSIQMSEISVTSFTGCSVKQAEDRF
- protocol-description: Agonistic activity at human BRS3 expressed in HEK293AEO at 10 uM cells by aequorin bioluminescence assay relative to dY peptide
- Type: functional, cell-based
The label depends only on Activity: YES if it is at least 90%, NO if it is smaller.

> print(dat)
                             smiles.notation  class
 1  CCC(C)(C)Cc1c[nH]c(CCc2ccc(-c3ccccc3C(=O)O)cc2)n1    YES
 2  Cc1ccccc1Cc1cnc(CCc2ccc(-c3ccccc3C(=O)O)cc2)[nH]1    YES
 3  O=C(O)c1ccccc1-c1ccc(CCc2ncc(CC3CCC3)[nH]2)cc1    YES
 4  O=C(O)c1ccccc1-c1ccc(CCc2ncc(Cc3cccc(F)c3F)[nH]2)cc1    YES
 5  O=C(O)c1ccccc1-c1ccc(CCc2ncc(Cc3ccccc3F)[nH]2)cc1    YES
 6  N#Cc1cccc(Cc2cnc(CCc3ccc(-c4ccccc4C(=O)O)cc3)[nH]2)c1    YES
 7  N#Cc1ccc(Cc2cnc(CCc3ccc(-c4ccccc4C(=O)O)cc3)[nH]2)cc1     NO
 8  CC(C)(C)c1cnc(CCc2ccc(-c3ccccc3C(=O)O)cc2)[nH]1     NO
 9  O=C(O)c1ccccc1-c1ccc(CCc2ncc(CC3CC3)[nH]2)cc1    YES
10  COc1ccc(Cc2cnc(CCc3ccc(-c4ccccc4C(=O)O)cc3)[nH]2)cc1     NO
11  CCCCc1cnc(/C=C/c2ccc(-c3ccccc3C(=O)O)cc2)[nH]1     NO
12  CCC(C)(CC)Cc1cnc(CCc2ccc(-c3ccccc3C(=O)O)cc2)[nH]1    YES
13  CCCCc1cnc(CCCc2ccc(-c3ccccc3C(=O)O)cc2)[nH]1     NO
14  Cc1cccc(Cc2cnc(CCc3ccc(-c4ccccc4C(=O)O)cc3)[nH]2)c1     NO

====

- system-tested: Bombesin receptor subtype-3 (Homo sapiens)
- protocol-description: Agonistic activity at human BRS3 expressed in HEK293AEO at 10 uM cells by aequorin bioluminescence assay relative to dY peptide
- Assay type: functional, cell-based
property-label: Activity (%)

> print(dat)
                                    molecule  reported.measurement
 1  O=C(O)c1ccccc1-c1ccc(CCc2ncc(CC3CCCC3)[nH]2)cc1                   102
 2  CCCCc1cnc(C(C)Cc2ccc(-c3ccccc3C(=O)O)cc2)[nH]1 (configuration not stated)                    79
 3  O=C(O)c1ccccc1-c1ccc(CCc2ncc(Cc3ccccc3Cl)[nH]2)cc1                   100
 4  COc1cccc(Cc2cnc(CCc3ccc(-c4ccccc4C(=O)O)cc3)[nH]2)c1                    73
 5  O=C(O)c1ccccc1-c1ccc(CCc2ncc(Cc3ccccc3)[nH]2)cc1                   109
 6  N#Cc1ccccc1Cc1cnc(CCc2ccc(-c3ccccc3C(=O)O)cc2)[nH]1                    51
 7  CCCCc1cnc(CCc2ccc(-c3ccccc3C(=O)O)cc2)[nH]1                    78
 8  CCCCc1cnc(C(CCCC)Cc2ccc(-c3ccccc3C(=O)O)cc2)[nH]1 (configuration not stated)                    66
 9  CC(C)CCc1cnc(CCc2ccc(-c3ccccc3C(=O)O)cc2)[nH]1                   112
10  O=C(O)c1ccccc1-c1ccc(CCc2ncc(CC3CCCCC3)[nH]2)cc1                   104
11  CC(C)(C)CCc1cnc(CCc2ccc(-c3ccccc3C(=O)O)cc2)[nH]1                   102
12  CC(C)(C)Cc1cnc(CCc2ccc(-c3ccccc3C(=O)O)cc2)[nH]1                   103
13  O=C(O)c1ccccc1-c1ccc(CCc2ncc(C3CCCCC3)[nH]2)cc1                   102
14  CCCCc1cnc(C(CC)Cc2ccc(-c3ccccc3C(=O)O)cc2)[nH]1 (configuration not stated)                    76
15  O=C(O)c1ccccc1-c1ccc(CCc2ncc(CCC3CCCCC3)[nH]2)cc1                    94
16  CCCCc1cnc(C(CCCO)Cc2ccc(-c3ccccc3C(=O)O)cc2)[nH]1 (configuration not stated)                    74
17  O=C(O)c1ccccc1-c1ccc(CCc2ncc(CC3CCOCC3)[nH]2)cc1                    96

====

- system-tested: Bombesin receptor subtype-3 (Mus musculus)
- Sequence (whole entry): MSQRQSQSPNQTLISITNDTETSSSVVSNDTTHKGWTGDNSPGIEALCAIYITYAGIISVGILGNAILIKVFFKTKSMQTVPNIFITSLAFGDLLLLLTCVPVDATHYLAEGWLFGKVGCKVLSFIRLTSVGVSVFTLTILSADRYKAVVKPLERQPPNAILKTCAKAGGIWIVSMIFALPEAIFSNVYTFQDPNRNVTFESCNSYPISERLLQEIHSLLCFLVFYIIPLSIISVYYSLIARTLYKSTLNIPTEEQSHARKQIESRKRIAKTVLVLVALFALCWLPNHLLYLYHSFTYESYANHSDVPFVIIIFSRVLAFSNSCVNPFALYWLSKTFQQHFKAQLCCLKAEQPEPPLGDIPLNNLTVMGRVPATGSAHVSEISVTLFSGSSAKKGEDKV
- protocol-description: Agonistic activity at mouse BRS3 expressed in HEK293AEO cells at 10 uM by aequorin bioluminescence assay relative to dY peptide
- Format: functional, cell-based
property-label: Activity (%)

> print(dat)
                                    compound  property.label  reported.measurement
 1  O=C(O)c1ccccc1-c1ccc(CCc2ncc(Cc3ccc(Cl)cc3)[nH]2)cc1        Activity                   105
 2  N#Cc1cccc(Cc2cnc(CCc3ccc(-c4ccccc4C(=O)O)cc3)[nH]2)c1        Activity                   102
 3  O=C(O)c1ccccc1-c1ccc(CCc2ncc(CC3CCC3)[nH]2)cc1        Activity                    99
 4  O=C(O)c1ccccc1-c1ccc(CCc2ncc(CC3CCCC3)[nH]2)cc1        Activity                    94
 5  O=C(O)c1ccccc1-c1ccc(CCc2ncc(Cc3ccccc3F)[nH]2)cc1        Activity                   121
 6  CCC(C)(C)Cc1c[nH]c(CCc2ccc(-c3ccccc3C(=O)O)cc2)n1        Activity                    94
 7  O=C(O)c1ccccc1-c1ccc(CCc2ncc(Cc3ccccc3)[nH]2)cc1        Activity                   111
 8  N#Cc1ccccc1Cc1cnc(CCc2ccc(-c3ccccc3C(=O)O)cc2)[nH]1        Activity                   139
 9  COc1ccc(Cc2cnc(CCc3ccc(-c4ccccc4C(=O)O)cc3)[nH]2)cc1        Activity                    88
10  CCCCc1cnc(C(CCCC)Cc2ccc(-c3ccccc3C(=O)O)cc2)[nH]1 (centres undefined)        Activity                    96
11  CCCCc1cnc(C(CC)Cc2ccc(-c3ccccc3C(=O)O)cc2)[nH]1 (centres undefined)        Activity                   104
12  O=C(O)c1ccccc1-c1ccc(CCc2ncc(Cc3ccc(F)cc3)[nH]2)cc1        Activity                   104
13  CCCCc1cnc(C(CCC)Cc2ccc(-c3ccccc3C(=O)O)cc2)[nH]1 (centres undefined)        Activity                   102
14  CCCCc1cnc(CCCc2ccc(-c3ccccc3C(=O)O)cc2)[nH]1        Activity                   101

Cited source: ChEMBL document CHEMBL1155395
